biological target: Integrin alpha-V/beta-3 (Homo sapiens, UniProt P05106+P06756); assay: Displacement of [125I]echistatin from human integrin alpha-V-beta-3 receptor low affinity state by solid phase assay relative to control; type: protein-complex assay; set-up: concentration or dose not given beside the values; conditions: concentration not given here
*1 amine or outer side, *2 acyl side, *3 side chain or, on linkers, in order; H or OH if unused. Where a SMILES comes first, the peptide text is derived from it. Bridges are numbered along the chain shown (N, C = ends). [ ]: non-standard residue; d: D form. Pro(trans-4-NH2) = O=C([C@@H]1C[C@@H](N[*:3])CN1[*:1])[*:2]
result_type: inhibition (%)
Give the value in % but do not write % after it.

*Q* Returns the measured inhibition for the input compound. Input: `CCC(=O)N1C[C@@H]2C[C@H]1C(=O)N[C@@H](CCCNC(=N)N)C(=O)NCC(=O)N[C@@H](CC(=O)O)C(=O)N2`
*A* 57.9

*Q* // lookup inhibition for `N=C(N)NCCC[C@@H]1NC(=O)[C@@H]2C[C@H](CN2C(=O)c2ccccc2)NC(=O)[C@H](CC(=O)O)NC(=O)CNC1=O`
*A* 68.4

*Q* Give the measured inhibition of N=C(N)NCCC[C@@H]1NC(=O)[C@@H]2C[C@H](CN2)NC(=O)[C@H](CC(=O)O)NC(=O)CNC1=O (H-[Pro(trans-4-NH2)]RGD; lactam 1-C) .
*A* 15.5

*Q* Recorded inhibition of `N=C(N)NCCC[C@@H]1NC(=O)[C@@H]2C[C@@H](CN2C(=O)c2ccccc2)NC(=O)[C@H](CC(=O)O)NC(=O)CNC1=O` , please.
*A* 42.2

*Q* Fill in the blank: the reported inhibition of `CCCCCCCN1C[C@@H]2C[C@H]1C(=O)N[C@@H](CCCNC(=N)N)C(=O)NCC(=O)N[C@@H](CC(=O)O)C(=O)N2` is ____.
*A* 46.3

----------
Below, each entry is listed with its recorded pIC50.
molecular target: Integrin alpha-V/beta-3 (Homo sapiens, UniProt P05106+P06756); assay: Displacement of [125I]echistatin from human integrin alpha-V-beta-3 receptor by solid phase assay; format: protein-complex assay
Sequence (P05106 27-788 limits assumed): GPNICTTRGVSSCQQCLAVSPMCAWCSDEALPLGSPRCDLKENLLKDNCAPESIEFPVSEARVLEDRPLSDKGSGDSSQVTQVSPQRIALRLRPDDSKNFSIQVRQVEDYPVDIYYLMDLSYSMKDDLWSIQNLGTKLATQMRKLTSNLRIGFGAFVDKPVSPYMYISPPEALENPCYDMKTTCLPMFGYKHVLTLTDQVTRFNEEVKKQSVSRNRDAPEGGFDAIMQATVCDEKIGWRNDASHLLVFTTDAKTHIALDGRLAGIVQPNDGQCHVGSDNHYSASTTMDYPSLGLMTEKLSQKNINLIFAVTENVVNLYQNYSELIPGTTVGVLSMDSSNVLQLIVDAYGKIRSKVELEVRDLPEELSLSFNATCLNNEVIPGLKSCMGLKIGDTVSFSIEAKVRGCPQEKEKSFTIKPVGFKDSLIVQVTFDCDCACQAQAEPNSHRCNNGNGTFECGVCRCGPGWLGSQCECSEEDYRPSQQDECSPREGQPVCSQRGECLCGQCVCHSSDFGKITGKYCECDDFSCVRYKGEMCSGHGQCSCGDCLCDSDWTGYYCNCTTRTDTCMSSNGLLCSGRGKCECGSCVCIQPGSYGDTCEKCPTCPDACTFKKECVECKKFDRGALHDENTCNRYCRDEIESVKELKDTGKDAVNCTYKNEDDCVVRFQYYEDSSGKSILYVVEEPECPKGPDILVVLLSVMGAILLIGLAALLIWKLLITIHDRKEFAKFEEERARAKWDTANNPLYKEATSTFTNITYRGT
Sequence (P06756 31-889 limits assumed): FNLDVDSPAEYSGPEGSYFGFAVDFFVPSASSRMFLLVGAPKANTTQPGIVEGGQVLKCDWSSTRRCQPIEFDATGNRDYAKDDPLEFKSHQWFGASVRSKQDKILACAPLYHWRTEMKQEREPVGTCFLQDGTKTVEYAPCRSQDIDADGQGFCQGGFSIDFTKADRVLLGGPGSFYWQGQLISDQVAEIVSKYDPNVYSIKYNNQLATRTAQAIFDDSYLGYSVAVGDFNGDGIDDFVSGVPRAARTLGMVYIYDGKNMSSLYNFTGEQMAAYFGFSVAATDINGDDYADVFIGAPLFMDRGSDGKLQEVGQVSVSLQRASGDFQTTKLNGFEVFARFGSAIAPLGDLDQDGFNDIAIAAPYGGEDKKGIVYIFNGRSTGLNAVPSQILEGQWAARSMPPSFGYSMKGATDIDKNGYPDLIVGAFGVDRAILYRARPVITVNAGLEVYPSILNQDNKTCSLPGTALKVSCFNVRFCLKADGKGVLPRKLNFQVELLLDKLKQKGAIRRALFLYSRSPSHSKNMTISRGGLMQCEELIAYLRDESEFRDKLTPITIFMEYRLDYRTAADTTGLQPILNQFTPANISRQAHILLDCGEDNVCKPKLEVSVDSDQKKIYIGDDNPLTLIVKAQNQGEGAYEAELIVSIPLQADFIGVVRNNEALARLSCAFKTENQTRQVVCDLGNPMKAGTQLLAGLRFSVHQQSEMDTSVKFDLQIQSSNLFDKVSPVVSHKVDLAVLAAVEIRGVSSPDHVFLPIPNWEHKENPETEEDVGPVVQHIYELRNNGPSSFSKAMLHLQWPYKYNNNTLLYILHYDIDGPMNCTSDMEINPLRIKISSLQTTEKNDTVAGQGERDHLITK
Sequence (P06756 891-1048 limits assumed): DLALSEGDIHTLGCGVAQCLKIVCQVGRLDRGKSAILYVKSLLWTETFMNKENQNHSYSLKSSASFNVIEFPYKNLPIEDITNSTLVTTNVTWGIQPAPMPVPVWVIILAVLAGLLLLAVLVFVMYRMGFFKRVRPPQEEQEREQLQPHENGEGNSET
When answering, recall that pIC50 equals minus log10 of the concentration in mol/L, and write that number alone.

// solved cases for pIC50 follow
{"columns": ["smiles_notation", "reported_result"],
 "data": [
  ["NC(N)=NCCC[C@@H]1NC(=O)CNC(=O)[C@@H](CC(=O)O)N[C@H]2CCC[C@H]3CC[C@H](C1=O)N3C2=O", 8.25],
  ["CCC(=O)N1C[C@@H]2C[C@H]1C(=O)N[C@@H](CCCN=C(N)N)C(=O)NCC(=O)N[C@@H](CC(=O)O)C(=O)N2", 8.25]
]}

*Q* Record request: pIC50 value, item `CCCCCCCN1C[C@@H]2C[C@H]1C(=O)N[C@@H](CCCN=C(N)N)C(=O)NCC(=O)N[C@@H](CC(=O)O)C(=O)N2`
*A* 8.55

*Q* Looking for the measured pIC50 of `NC(N)=NCCC[C@@H]1NC(=O)[C@@H]2C[C@H](CN2C(=O)c2ccccc2)NC(=O)[C@H](CC(=O)O)NC(=O)CNC1=O` , can you help?
*A* 6.76

*Q* Fill blank: measured pIC50 of the molecule `NC(N)=NCCC[C@@H]1NC(=O)[C@@H]2C[C@@H](CN2C(=O)c2ccccc2)NC(=O)[C@H](CC(=O)O)NC(=O)CNC1=O` is ____.
*A* 8.29

*Q* Looking for the measured pIC50 of `N=C(N)NCCC[C@@H]1NC(=O)[C@@H]2CC[C@H](C2)NC(=O)[C@H](CC(=O)O)NC(=O)CNC1=O` , can you help?
*A* 9.59
